Target: σ1 receptor (Cavia porcellus, UniProt Q60492)
Sequence (Q60492 whole entry): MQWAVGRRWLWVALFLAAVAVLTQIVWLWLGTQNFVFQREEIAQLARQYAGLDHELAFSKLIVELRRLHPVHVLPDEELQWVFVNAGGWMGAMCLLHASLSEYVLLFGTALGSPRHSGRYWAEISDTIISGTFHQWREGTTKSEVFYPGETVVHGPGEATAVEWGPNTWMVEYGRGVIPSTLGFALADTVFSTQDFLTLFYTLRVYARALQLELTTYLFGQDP
property-name: Ki (nM)
Numbers only, in nM.

Prompt line: Item under review: CN(C)c1ccc2c(c1)C(=O)N(CCCCCCOc1cccc3c1CCCC3CCC(=O)N1CCN(C3CCCCC3)CC1)C2=O (stereo not shown) [Compound 9] . Reported Ki?
Response line: 13.1
